system: Leishmania mexicana promastigotes; test: resazurin drug sensitivity assay, L. mexicana promastigotes; assay type: cell-based; details: Leishmania mexicana, promastigotes; average ± SEM; read-out: L. mexicana EC50
OBSERVED PROPERTY: EC50

Look over these answered cases.
CC(C)CNC(=O)/C=C/c1ccc2c(c1)OCO2 [Compound 7, fagaramide]
13.3 µM
COc1ccc2c(c1OC)CN(C)c1c-2ccc2cc3c(cc12)OCO3 [Compound 6, dihydrochelerythrin]
5.4 µM
CCC(=O)O[C@H]1[C@@H](OC(C)=O)[C@H]2[C@H]([C@@H]3[C@@H](OC(C)=O)[C@@H]4[C@H]([C@H](C)C=C5OC(=O)[C@@](C)(O)[C@@]54C)[C@]31C)[C@@H](O)C(=O)[C@H]1C[C@@H]3O[C@@H]3[C@H](OC(C)=O)[C@]21C [Compound 4, Taccalonolide A 12-propanoate]
> 280 µM

Kindly review the next compound as well.
Which EC50 value is on record for CC(=O)O[C@@H]1[C@H]2[C@H]3[C@H]([C@H](OC(C)=O)[C@H](OC(C)=O)[C@]2(C)[C@@H]2[C@@H]1[C@]1(C)C(=C[C@H]2C)OC(=O)[C@@]1(C)O)[C@]1(C)[C@H](C[C@@H]2O[C@@H]2[C@@H]1OC(C)=O)C(=O)[C@@H]3O [Compound 3, taccalonolide A] ?
> 285 µM
